Test system: Fusobacterium nucleatum subsp. Nucleatum;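 further: lowest concentration where monotonic median growth AUC falls below 0.75 of drug-free control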
procedure-summary: IC25 growth inhibition; higher = less potent
Readings of IC25 growth inhibition for the listed molecules

>  <molecule>
Cc1c(Cl)cccc1Nc1ccccc1C(=O)O [Tolfenamic acid]

>  <IC25 growth inhibition>
≤ 40 µM

$$$$

Now for a further molecule.
Request: Given CC[C@H]1OC(=O)[C@H](C)[C@@H](O[C@H]2C[C@@](C)(OC)[C@@H](O)[C@H](C)O2)[C@H](C)[C@@H](O[C@@H]2O[C@H](C)C[C@H](N(C)C)[C@H]2O)[C@](C)(O)C[C@@H](C)C(=O)[C@H](C)[C@@H](O)[C@]1(C)O [Erythromycin] , state its recorded IC25 growth inhibition.
Response: ≤ 5 µM
